The origin of these recorded values is ChEMBL document CHEMBL3108700.

- test.target: Toll-like receptor 9 (Mus musculus)
- protocol.description: Inhibition of TLR9 in BALB/c mouse BMDM assessed as downregulation of CpG-stimulated IL-6 level at 5 ug/ml preincubated for 18 hrs followed by CpG challenge measured after 24 hrs by ELISA relative to control
The source made the active and inactive calls. The rule behind the calls is not given here.
Hi there, use one of these labels in your reply, thanks! active, inactive

Any idea what this test logged for Cc1ccc(CS(=O)(=O)NCCN2CCCC2)cc1 ?
inactive

Any idea what this test logged for CN(C)CCS(=O)(=O)Cc1cccc(F)c1 ?
inactive

Any idea what this test logged for CN(C)CCS(=O)(=O)NCc1ccc(F)cc1 ?
inactive

Any idea what this test logged for Cc1ccc(CS(=O)(=O)CCCN(C)C)cc1 ?
inactive

Any idea what this test logged for Cc1ccc(CS(=O)(=O)NCCN(C)C)cc1 ?
inactive

Any idea what this test logged for O=C(CCN1CCOCC1)NCc1cccc2cnccc12 ?
inactive

Any idea what this test logged for C[N+]1(CCCS(=O)(=O)Cc2ccc(Br)cc2)CCOCC1 ?
inactive

Any idea what this test logged for CN1CCN(CCS(=O)(=O)c2ccccc2)CC1 ?
inactive

Any idea what this test logged for COc1ccc2c(CS(=O)(=O)NCCN3CCCC3)cc(=O)oc2c1 ?
inactive

Any idea what this test logged for Cc1ccc(CS(=O)(=O)NCCCN(C)C)cc1 ?
inactive

Any idea what this test logged for O=S(=O)(Cc1ccc2ccccc2c1)NCCN1CCOCC1 ?
active

Any idea what this test logged for C[N+]1(CCS(=O)(=O)Cc2ccc(Br)cc2)CCCC1 ?
inactive

Any idea what this test logged for CN(C)CCOP(=O)(O)Cc1ccc(Br)cc1 ?
inactive

Any idea what this test logged for CN(C)CCN(C)CCS(=O)(=O)Cc1cccc(F)c1 ?
inactive

Any idea what this test logged for O=[N+]([O-])c1ccc(CNS(=O)(=O)CCN2CCOCC2)cc1 ?
inactive

Any idea what this test logged for O=S(=O)(CCN1CCCC1)NCc1ccc(Br)cc1 ?
inactive
